- test: qHTS of pediatric cancer cell lines to identify multiple opportunities for drug repurposing: Primary screen for Saos-2 cells (AID 1347097); note: nearly all actives have a fitted effect of over 40% in size
- measurement_context: Saos-2 viability, CellTiter-Glo ATP luminescence, 48 h; series mostly up to 46 µM
Records with an inconclusive call do not appear. The source made the active and inactive calls. Calls come from the whole dose curve; as a rule, active = well fitted cell-killing curve with a large enough effect; inconclusive = small, poorly fitted or top-dose-only effect; inactive = no such curve, though single readings can be large or run the other way.
Mark one answer only. Choices: t (active), f (inactive)

Which outcome was entered for the compound CNC(=O)c1cc(Oc2ccc(NC(=O)Nc3cc(C(C)(C)C)nn3-c3ccc4ncccc4c3)c(F)c2)ccn1 in this test? t

Outcome? CN1CC[C@@H](c2c(O)cc(O)c3c(=O)cc(-c4ccccc4Cl)oc23)[C@@H](O)C1 t

Each compound tested received a call. Report the one for COc1cccc(-c2ccc(NC(=O)C3=C(C(=O)O)CCC3)c(F)c2)c1 . t

Dear all, I need the recorded test outcome for Nc1nc(-c2nn(Cc3ccccc3F)c3ncccc23)nc(N)c1N1CCOCC1 , thank you. f

Lab log entry: COc1ccc(-n2nc(C(N)=O)c3c2C(=O)N(c2ccc(N4CCCCC4=O)cc2)CC3)cc1 — outcome as called in the assay? f

Identify the outcome logged in this assay for the compound shown: CC(C)(O)CCc1ccc(OCc2cc(-c3cccc(OC(F)F)c3)c3ncccc3c2)cc1 f

Look up the recorded call for COc1ccc(F)c(F)c1C(=O)c1cnc(NC2CCN(S(C)(=O)=O)CC2)nc1N in this test. t

# fetch the recorded call for Cn1c2ccccc2c2c3c(c4c5ccccc5n(CCC#N)c4c21)CNC3=O here t

Call for entry CCCCOc1c(C(=O)c2c(F)cc(C)cc2F)cnc2n[nH]cc12 : t

====

- test: Quantitative High-Throughput drug screen in 47 multiple myeloma cell lines against the NCATS MIPE library collection: UTMC2_PLB cell viability assay (AID 1919868); note: nearly all actives have a fitted effect of over 55% in size
- measurement_context: CellTiter-Glo ATP luminescence, 48 h
Records with an inconclusive call do not appear. Active and inactive are the calls of the source. Calls come from the whole dose curve; as a rule, active = well fitted cell-killing curve with a large enough effect; inconclusive = small, poorly fitted or top-dose-only effect, or effect the other way; inactive = no such curve, though single readings can be large or run the other way.
Pick one and only one: true (1) (active), false (0) (inactive)

Fill in: this test's call for Cc1ccc(NC(=O)C2(c3ccc4c(c3)OC(F)(F)O4)CC2)nc1-c1cccc(C(=O)O)c1 is ___ true (1)

In this assay, the call recorded for Cc1cnc(-c2cnc(NCCNc3ccc(C#N)cn3)nc2-c2ccc(Cl)cc2Cl)[nH]1 was what? true (1)

Hello, I am checking results. What call was entered for CN(C)CC(C)(C)CNc1nn2c(-c3ccccc3)nnc2cc1C1CCC1 ? true (1)

In this assay, the call recorded for CC1COC2(CCN(c3nc(=O)c4cc(C(F)(F)F)cc([N+](=O)[O-])c4s3)CC2)O1 (stereo not drawn) was what? false (0)

Which outcome was entered for the compound COC(=O)[C@]12CCC(C)(C)C[C@@H]1[C@@H]1C(=O)C=C3[C@@]4(C)C=C(C#N)C(=O)C(C)(C)[C@@H]4CC[C@@]3(C)[C@]1(C)CC2 in this test? true (1)

Which outcome was assigned to CCN(CC)CCCCNc1ncc2cc(-c3cc(OC)cc(OC)c3)c(NC(=O)NC(C)(C)C)nc2n1 in this test? true (1)

# lookup: test call for CC[C@H]1CN2CCc3cc(OC)c(OC)cc3[C@H]2C[C@@H]1C[C@@H]1NCCc2cc(OC)c(OC)cc21 true (1)

Record lookup: outcome of this test for CC(NCc1ccc2c(c1)nc(NC(=O)c1ccc(-c3cn[nH]c3)s1)n2CC(C)(C)O)C(C)(C)C (stereo not drawn) ? true (1)

For this compound, state the assay outcome: Cc1cc(Nc2ncnc3ccc(-c4ccc(CNCCS(C)(=O)=O)o4)cc23)ccc1Oc1ccn2ncnc2c1 true (1)

Give the logged outcome of this assay for the following compound: O=C(Nc1cc(C(F)(F)F)cc(C(F)(F)F)c1)c1cc(Cl)ccc1O true (1)

Test call for this compound, please: CCCn1c(=O)c2[nH]c(-c3cnn(Cc4cccc(C(F)(F)F)c4)c3)nc2n(CC)c1=O false (0)

Given O=C(C=Cc1cccc(S(=O)(=O)Nc2ccccc2)c1)NO , state the outcome it received in this test. true (1)

Write down the call the test reported for this compound. Item: CCOc1cc2ncc(C#N)c(Nc3ccc(F)c(Cl)c3)c2cc1NC(=O)C=CCN(C)C true (1)

Given Cc1nc2cnc3ccc(C#Cc4cccnc4)cc3c2n1-c1ccc(C(C)(C)C#N)cc1 , state the outcome it received in this test. true (1)

What classification did CC(C)(C)c1cc(C(C)(C)C)c(NC(=O)c2c[nH]c3ccccc3c2=O)cc1O end up with in this test? false (0)

Which outcome did this test record for the compound CN(C)Cc1c(C(=O)NCCOc2ccc(C(=O)NO)cc2)oc2ccccc12 ? true (1)

Could you check what this test reported for CC1(O)CC(c2nc(-c3ccc4ccc(-c5ccccc5)nc4c3)c3c(N)nccn23)C1 (stereo not drawn) ? true (1)

Name the outcome recorded for CCCCCN(CCC12CC3CC(CC(C3)C1)C2)C(=O)NCCCc1ccncc1 in the assay. true (1)
